Each recorded value in this set is attributed to patent US5298521A.

# Assay target: 5-LO in intact RBL-1 cells (Rattus norvegicus, UniProt P12527)
# Construct: endogenous in cells
# Test method notes: 5-LO inhibition in intact RBL-1 cells (Procedure III)
# Test conditions: read-out: PROC. III IC50 5-LO
# maps each entry to its log10 of IC50
A difference of one corresponds to tenfold IC50; all values are log10 with IC50 in nM.

Below are worked cases with known answers.
COc1ccc(-n2nc(CSC(=S)N(C)O)cc2-c2ccc(Cl)cc2)cc1 [1-A] ... 3.40
COc1ccc(-n2nc(CSC(=S)N(C)O)cc2-c2ccc(C)cc2)cc1 [1-F] ... 3.38

Input: Dear colleague, please send me the reported log10 of IC50 for COc1ccc(-n2nc(CSC(=S)N(O)C(C)C)cc2-c2ccc(C)cc2)cc1 [1-G] when you can.
Output: 3.75

Input: Supply recorded log10 of IC50 for COc1ccc(-n2nc(CSC(=S)N(O)C(C)C)cc2-c2ccc(Cl)cc2)cc1 [1-B] here.
Output: 3.85

Input: Entry COc1ccc(-n2nc(CSC(=S)N(C)O)c(Cl)c2-c2ccc(C)cc2)cc1 [1-H] needs its log10 of IC50 filled in; supply it.
Output: 2.83

Input: Give me measured log10 of IC50, please, for this molecule: COc1ccc(-n2nc(CSC(=S)N(O)C(C)C)c(Br)c2-c2ccc(Cl)cc2)cc1 [1-E]
Output: 3.45

Input: State, in one line, measured log10 of IC50 of COc1ccc(-n2nc(CSC(=S)N(C)O)c(Cl)c2-c2ccc(Cl)cc2)cc1 [1-C]
Output: 2.38

###

Measured pIC50 values are reported for all entries that follow.
# Assay target: RBL-1 cell 5-lipoxygenase (Rattus norvegicus, UniProt P12527)
# Construct: the supernatant was saved as the source of enzymes; endogenous in cells
# Sequence (P12527 1-673): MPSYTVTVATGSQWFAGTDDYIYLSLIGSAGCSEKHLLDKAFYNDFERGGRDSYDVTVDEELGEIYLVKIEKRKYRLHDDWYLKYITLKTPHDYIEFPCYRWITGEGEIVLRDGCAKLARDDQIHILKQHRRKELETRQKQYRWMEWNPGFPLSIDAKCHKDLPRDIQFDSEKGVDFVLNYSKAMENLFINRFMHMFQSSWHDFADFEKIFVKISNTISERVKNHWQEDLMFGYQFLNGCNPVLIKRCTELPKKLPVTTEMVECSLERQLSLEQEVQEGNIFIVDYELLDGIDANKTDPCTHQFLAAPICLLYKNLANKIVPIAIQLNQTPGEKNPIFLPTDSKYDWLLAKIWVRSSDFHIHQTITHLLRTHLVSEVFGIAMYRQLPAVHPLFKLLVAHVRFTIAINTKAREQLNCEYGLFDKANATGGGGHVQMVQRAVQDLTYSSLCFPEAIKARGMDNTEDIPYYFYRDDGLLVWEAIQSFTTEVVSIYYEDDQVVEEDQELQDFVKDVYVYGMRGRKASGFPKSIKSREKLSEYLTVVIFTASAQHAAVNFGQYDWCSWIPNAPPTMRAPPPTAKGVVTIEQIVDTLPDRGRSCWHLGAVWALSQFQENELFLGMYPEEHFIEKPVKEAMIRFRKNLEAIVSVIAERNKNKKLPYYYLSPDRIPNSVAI
# Test method notes: RBL-1 cell 5-lipoxygenase, cell homogenate supernatant (Procedure II)
# Test conditions: RBL-1 homogenate; read-out: PROC. II IC50 5-LO
// pIC50: -log10(molar conc.)

// solved cases for pIC50 follow
COc1ccc(-n2nc(CSC(=S)N(O)C(C)C)c(Cl)c2-c2ccc(Cl)cc2)cc1 ... 7.15
COc1ccc(-n2nc(CSC(=S)N(O)C(C)C)cc2-c2ccc(C)cc2)cc1 ... 7.70
COc1ccc(-n2nc(CSC(=S)N(O)C(C)C)c(Br)c2-c2ccc(Cl)cc2)cc1 ... 7.40

We now examine a further compound.
Input: Report measured pIC50; entry is COc1ccc(-n2nc(CSC(=S)N(O)C(C)C)cc2-c2ccc(Cl)cc2)cc1
Output: 6.24

###

# Assay target: RBL-1 cell cyclooxygenase (Rattus norvegicus, UniProt Q63921)
# Construct: the supernatant was saved as the source of enzymes; endogenous in cells
# Sequence (Q63921 27-602): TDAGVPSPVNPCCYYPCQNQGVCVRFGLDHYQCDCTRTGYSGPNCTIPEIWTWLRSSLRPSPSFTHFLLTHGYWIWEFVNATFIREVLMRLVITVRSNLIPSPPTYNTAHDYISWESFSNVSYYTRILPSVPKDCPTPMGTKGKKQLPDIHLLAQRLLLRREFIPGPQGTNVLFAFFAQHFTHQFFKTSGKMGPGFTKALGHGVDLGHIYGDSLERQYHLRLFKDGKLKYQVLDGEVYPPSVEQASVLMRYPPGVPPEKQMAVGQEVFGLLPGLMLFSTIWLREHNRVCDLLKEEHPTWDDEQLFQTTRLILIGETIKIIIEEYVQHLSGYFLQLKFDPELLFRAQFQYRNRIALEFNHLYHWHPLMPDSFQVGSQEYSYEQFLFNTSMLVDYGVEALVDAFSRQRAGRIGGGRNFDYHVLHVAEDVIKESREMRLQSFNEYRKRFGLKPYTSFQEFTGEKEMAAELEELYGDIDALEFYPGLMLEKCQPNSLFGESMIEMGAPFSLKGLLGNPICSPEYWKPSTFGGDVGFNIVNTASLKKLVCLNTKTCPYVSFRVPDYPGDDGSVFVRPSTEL
# Test method notes: RBL-1 cell cyclooxygenase, cell homogenate supernatant (Procedure II)
# Test conditions: RBL-1 homogenate; read-out: PROC. II IC50 CO
Listing: IC50 of selected compounds
Could you give me the number in µM? Just the number is fine.

COc1ccc(-n2nc(CSC(=S)N(O)C(C)C)c(Cl)c2-c2ccc(Cl)cc2)cc1 ... 1.67
COc1ccc(-n2nc(CSC(=S)N(O)C(C)C)cc2-c2ccc(Cl)cc2)cc1 ... 8.07
COc1ccc(-n2nc(CSC(=S)N(O)C(C)C)cc2-c2ccc(C)cc2)cc1 ... 0.03

Could you now look at the following compound, please?
Input: Indicate its recorded IC50; the compound in question is COc1ccc(-n2nc(CSC(=S)N(O)C(C)C)c(Br)c2-c2ccc(Cl)cc2)cc1
Output: 1.96

###

# Assay target: RBL-1 cell cyclooxygenase (Rattus norvegicus, UniProt Q63921)
# Construct: the supernatant was saved as the source of enzymes; endogenous in cells; host or cells: RBL-1 rat basophilic leukemia cells, homogenate supernatant
# Test method notes: RBL-1 cell cyclooxygenase, cell homogenate supernatant (Procedure II)
# Format: biochemical
# Test conditions: RBL-1 homogenate, 3 μM; read-out: PROC. II % INHIBITION CO
Reported values of inhibition at 3 µM for individual entries
API: value field is a number in %; no unit string.

Input: Supply measured inhibition at 3 µM of COc1ccc(-n2nc(CSC(=S)N(O)C(C)C)c(Cl)c2-c2ccc(C)cc2)cc1 in your reply.
Output: 0

Input: Report measured inhibition at 3 µM; entry is COc1ccc(-n2nc(CSC(=S)N(O)C(C)C)c(Cl)c2-c2ccc(Cl)cc2)cc1
Output: 0

Input: Using known records, supply inhibition at 3 µM for COc1ccc(-n2nc(CSC(=S)N(O)C(C)C)c(Br)c2-c2ccc(C)cc2)cc1
Output: 0

Input: Please list inhibition at 3 µM recorded for the compound COc1ccc(-n2nc(CSC(=S)N(C)O)cc2-c2ccc(C)cc2)cc1
Output: 100

Input: Query inhibition at 3 µM for COc1ccc(-n2nc(CSC(=S)N(C)O)c(Br)c2-c2ccc(C)cc2)cc1
Output: 52

###

Reported inhibition at 3 µM values for a set of compounds
# Assay target: RBL-1 cell 5-lipoxygenase (Rattus norvegicus, UniProt P12527)
# Construct: the supernatant was saved as the source of enzymes; endogenous in cells; host or cells: RBL-1 rat basophilic leukemia cells, homogenate supernatant
# Test method notes: RBL-1 cell 5-lipoxygenase, cell homogenate supernatant (Procedure II)
# Type: biochemical
# Test conditions: RBL-1 homogenate, 3 μM; read-out: PROC. II % INHIBITION 5-LO
A number alone suffices; assume %.

COc1ccc(-n2nc(CSC(=S)N(C)O)c(Br)c2-c2ccc(C)cc2)cc1 ... 83
COc1ccc(-n2nc(CSC(=S)N(C)O)cc2-c2ccc(C)cc2)cc1 ... 83
COc1ccc(-n2nc(CSC(=S)N(C)O)c(Cl)c2-c2ccc(C)cc2)cc1 ... 91

Input: Give the measured inhibition at 3 µM for COc1ccc(-n2nc(CSC(=S)N(O)C(C)C)c(Br)c2-c2ccc(C)cc2)cc1
Output: 87

Input: Report inhibition at 3 µM for COc1ccc(-n2nc(CSC(=S)N(O)C(C)C)cc2-c2ccc(Cl)cc2)cc1
Output: 100

Input: Give reported inhibition at 3 µM value for COc1ccc(-n2nc(CSC(=S)N(C)O)cc2-c2ccc(Cl)cc2)cc1
Output: 85

Input: Given the compound COc1ccc(-n2nc(CSC(=S)N(C)O)c(Cl)c2-c2ccc(Cl)cc2)cc1 , write its reported inhibition at 3 µM.
Output: 91

Input: Report inhibition at 3 µM, nothing else, for this compound: COc1ccc(-n2nc(CSC(=S)N(O)C(C)C)c(Br)c2-c2ccc(Cl)cc2)cc1
Output: 73

###

# Assay target: Sheep seminal vesicle cyclooxygenase (Ovis aries)
# Construct: Sheep seminal vesicle (SSV) cyclooxygenase (95% pure); purchased Biomol (Plymouth Meeting, Pa.); host or cells: sheep seminal vesicle
# Sequence (P05979 25-600): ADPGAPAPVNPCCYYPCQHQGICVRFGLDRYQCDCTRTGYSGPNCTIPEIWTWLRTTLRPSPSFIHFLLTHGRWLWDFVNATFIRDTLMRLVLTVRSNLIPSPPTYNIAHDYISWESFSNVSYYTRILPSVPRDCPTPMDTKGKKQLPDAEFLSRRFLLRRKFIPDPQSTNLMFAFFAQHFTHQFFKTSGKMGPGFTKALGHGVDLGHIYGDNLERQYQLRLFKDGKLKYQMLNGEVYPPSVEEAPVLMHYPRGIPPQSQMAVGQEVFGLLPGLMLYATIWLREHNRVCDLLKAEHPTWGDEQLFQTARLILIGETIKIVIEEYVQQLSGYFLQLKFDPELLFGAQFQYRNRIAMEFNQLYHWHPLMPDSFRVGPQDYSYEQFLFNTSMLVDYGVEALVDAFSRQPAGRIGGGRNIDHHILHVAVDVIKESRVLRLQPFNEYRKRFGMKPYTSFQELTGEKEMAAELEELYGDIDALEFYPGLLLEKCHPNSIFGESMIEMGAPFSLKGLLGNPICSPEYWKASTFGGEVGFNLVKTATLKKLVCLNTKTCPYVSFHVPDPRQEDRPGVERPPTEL
# Test method notes: Sheep seminal vesicle cyclooxygenase (Procedure I)
# Assay type: biochemical
# Test conditions: read-out: PROC. I % INHIB CO
Measured endpoint: inhibition at 3 µM (%)
Enter your answer as a number in %; do not include the unit.

For orientation, consider the following solved cases.
COc1ccc(-n2nc(CSC(=S)N(O)C(C)C)cc2-c2ccc(Cl)cc2)cc1 ... 39
COc1ccc(-n2nc(CSC(=S)N(O)C(C)C)c(Br)c2-c2ccc(Cl)cc2)cc1 ... 0
COc1ccc(-n2nc(CSC(=S)N(O)C(C)C)c(Br)c2-c2ccc(C)cc2)cc1 ... 0
COc1ccc(-n2nc(CSC(=S)N(C)O)c(Cl)c2-c2ccc(Cl)cc2)cc1 ... 46
COc1ccc(-n2nc(CSC(=S)N(C)O)c(Br)c2-c2ccc(C)cc2)cc1 ... 36

Input: Note inhibition at 3 µM for the compound shown: COc1ccc(-n2nc(CSC(=S)N(O)C(C)C)c(Cl)c2-c2ccc(Cl)cc2)cc1
Output: 31
